testDetails: gradient 5% acetonitrile 3 min, to 50% in 2 min, to 85% in 15 min, held 3 min, 100 µL/min
conditionNotes: column: Zorbax Extend-C18 2.1 x 50 mm; eluents: water / acetonitrile, 0.1% formic acid
valueType: RP-LC retention time (s)

>>> obsvalue("COc1cc(NC(=O)C2CCCN(c3cc(=O)n(C)c(=O)n3C)C2)cc(OC)c1 (stereo unspecified)")
708
>>> obsvalue("Cc1ccc2c(c1)c1nc3ccccc3nc1n2CC(=O)O")
721
>>> obsvalue("Cc1ccc(C(=O)NCCc2sccc2C)cc1NC1=NC2CS(=O)(=O)CC2S1 (stereo unspecified)")
685
>>> obsvalue("Cc1noc2nc(CCC(=O)NCCCN3CCc4ccccc4C3)nc(N3CCCCCC3)c12")
695
>>> obsvalue("Cc1cc(C)cc(NC(=O)CSc2ccc(N3CCCC(C(=O)NC4CC4)C3)nn2)c1 (stereo unspecified)")
690
>>> obsvalue("O=c1ccc(N2CCCC(NS(=O)(=O)c3ccc(F)c(Cl)c3)C2)n[nH]1 (stereo unspecified)")
706

###

testDetails: gradient 5% acetonitrile 3 min, to 50% in 2 min, to 85% in 15 min, held 3 min, 100 µL/min
conditionNotes: column: Zorbax Extend-C18 2.1 x 50 mm; eluents: water / acetonitrile, 0.1% formic acid
Rule: RP-LC retention time under 800 s gives not met, otherwise met.

>>> discretelabel("O=C(NCc1ccc2c(c1)OCO2)c1ccc2c(cnn2CC(=O)N2CCCCCC2)c1")
"not met"
>>> discretelabel("O=C(c1cnccn1)N1CCC(N2C(=O)C(O)C23CCCCC3)CC1 (stereo not given)")
"not met"
>>> discretelabel("CCn1c(C)nnc1SCc1nc(-c2ccc(OC)c(OC)c2)oc1C")
"not met"
>>> discretelabel("Cc1cc(F)ccc1NC(=O)C1CN(S(=O)(=O)C2CC2)CC12CCCCC2 (stereo not given)")
"met"
>>> discretelabel("CCN(CC)CCNc1ccc2nc(C)n3c4ccc(OC)cc4c(=O)c1c23")
"not met"
>>> discretelabel("COc1ccc(N2CCN(c3cc(-c4nc(-c5ccccc5)no4)c4ccccc4n3)CC2)cc1")
"not met"
>>> discretelabel("c1cc(-c2nc(CC3CCCNC3)no2)ccn1 (stereo not given)")
"not met"
>>> discretelabel("Cc1cccc(OCC(=O)Nc2ccc3c(c2)Sc2ncccc2C(=O)N3C)c1")
"met"
>>> discretelabel("CCOC(=O)c1sc(NC(=O)C2CC2)nc1-c1ccccc1")
"met"
>>> discretelabel("Cc1cc(C(=O)NCC(C)C)c2cccc(C)c2n1")
"not met"
>>> discretelabel("CC(C)C(=O)Nc1nc(-c2ccc3c(c2)NC(=O)CO3)cs1")
"not met"
>>> discretelabel("CC(C)c1noc(-c2ccc(-n3cnc(C(=O)N4CCc5ccccc5C4)c3)nc2)n1")
"met"
>>> discretelabel("CCOC(=O)c1noc2nc(C)nc(NCC3CCN(Cc4ccc(C)cc4)CC3)c12")
"not met"
>>> discretelabel("Cc1ccc(S(=O)(=O)N(C)CC2CCOC2)cc1Cl (stereo not given)")
"met"
>>> discretelabel("O=C(c1cc2ccccc2o1)N1CCC(CNS(=O)(=O)C2CC2)CC1")
"not met"
>>> discretelabel("O=S(=O)(C1CC1)N1CCC(c2nc(-c3ccncc3)no2)C1 (stereo not given)")
"not met"
>>> discretelabel("COc1ccc(Cc2nc(-c3ccc4c(c3)nnn4CCC(=O)N3CCCC3)no2)cc1")
"met"

src = the METLIN SMRT retention time set (Domingo-Almenara et al. 2019)
